- Test system: NCI-H2170
- test summary: relative viability (nuclei count vs DMSO), 5 days (fraction); higher = more cells survive
- test settings: first compound 0.6325 µM
Strictly below 0.6 in relative viability: T. Otherwise: F.

Query: Take the compound Cc1csc(=NC2CCCCC2)n1/N=C/c1ccc(O)c(O)c1O [MIM1] + CS(=O)(=O)CCNCc1ccc(-c2ccc3ncnc(Nc4ccc(OCc5cccc(F)c5)c(Cl)c4)c3c2)o1 [Lapatinib] (partner 2 µM) and say whether its relative viability is less than 0.6.
Reply: T

Query: Next record, please: CN1CCN(CCOc2cc(OC3CCOCC3)c3c(Nc4c(Cl)ccc5c4OCO5)ncnc3c2)CC1 [Saracatinib] + CS(=O)(=O)N1CCN(Cc2cc3nc(-c4cccc5[nH]ncc45)nc(N4CCOCC4)c3s2)CC1 [Pictilisib] (partner 1 µM)
Reply: T

Query: Proceed to Cc1csc(=NC2CCCCC2)n1/N=C/c1ccc(O)c(O)c1O [MIM1] + O=C(c1cc(Cc2n[nH]c(=O)c3ccccc23)ccc1F)N1CCN(C(=O)C2CC2)CC1 [Olaparib] (partner 8 µM)
Reply: T

Query: Entry CN1CCN(CCOc2cc(OC3CCOCC3)c3c(Nc4c(Cl)ccc5c4OCO5)ncnc3c2)CC1 [Saracatinib] + Cc1nc(Nc2ncc(C(=O)Nc3c(C)cccc3Cl)s2)cc(N2CCN(CCO)CC2)n1 [Dasatinib] (partner 0.075 µM) please
Reply: T

Query: Okay, and Cc1csc(=NC2CCCCC2)n1/N=C/c1ccc(O)c(O)c1O [MIM1] + Cc1nc(NC(=O)N2CCC[C@H]2C(N)=O)sc1-c1ccnc(C(C)(C)C(F)(F)F)c1 [Alpelisib] (partner 2 µM) ?
Reply: F

Query: Ok, now CN1CCN(CCOc2cc(OC3CCOCC3)c3c(Nc4c(Cl)ccc5c4OCO5)ncnc3c2)CC1 [Saracatinib] + COc1cccc2cc(-c3nc([C@H]4CC[C@H](C(=O)O)CC4)n4ncnc(N)c34)[nH]c12 [OSI-027] (partner 0.5 µM)
Reply: F

* * *

Give measured relative viability for each item. Keep answers brief.
- Tested on: BEN
- test summary: relative viability (nuclei count vs DMSO), 5 days (fraction); higher = more cells survive
- test settings: first compound 0.006325 µM
Number only, no unit.

Query: What value of relative viability has been recorded for this entry: CCNC(=O)c1noc(-c2cc(C(C)C)c(O)cc2O)c1-c1ccc(CN2CCOCC2)cc1 [Luminespib] + CS(=O)(=O)N1CCN(Cc2cc3nc(-c4cccc5[nH]ncc45)nc(N4CCOCC4)c3s2)CC1 [Pictilisib] (partner 1 µM)
Reply: 0.597

Query: Cool, now CCNC(=O)c1noc(-c2cc(C(C)C)c(O)cc2O)c1-c1ccc(CN2CCOCC2)cc1 [Luminespib] + COc1cc2c(Oc3ccc(NC(=O)C4(C(=O)Nc5ccc(F)cc5)CC4)cc3F)ccnc2cc1OCCCN1CCOCC1 [Foretinib] (partner 0.25 µM)
Reply: 0.71

Query: // query: CCNC(=O)c1noc(-c2cc(C(C)C)c(O)cc2O)c1-c1ccc(CN2CCOCC2)cc1 [Luminespib] + O=C(CCCCCCC(=O)Nc1ccccc1)NO [Vorinostat] (partner 1 µM)
Reply: 0.546

* * *

Can you tell me relative viability for the items I'm about to list?
- System: NCI-H1755
- test summary: relative viability (nuclei count vs DMSO), 5 days (fraction); higher = more cells survive
- test settings: first compound 0.253 µM
Lab note: jot the number down without any unit.

Query: Quick check: relative viability of Nc1cccc2c1CN(C1CCC(=O)NC1=O)C2=O (stereo not drawn) [Lenalidomide] + CS(=O)(=O)CCNCc1ccc(-c2ccc3ncnc(Nc4ccc(OCc5cccc(F)c5)c(Cl)c4)c3c2)o1 [Lapatinib] (partner 2 µM) ?
Reply: 1.02

Query: Now the compound Nc1cccc2c1CN(C1CCC(=O)NC1=O)C2=O (stereo not drawn) [Lenalidomide] + CC(=O)c1c(C)c2cnc(Nc3ccc(N4CCNCC4)cn3)nc2n(C2CCCC2)c1=O [Palbociclib] (partner 0.5 µM)
Reply: 0.451

Query: Then what about the compound Nc1cccc2c1CN(C1CCC(=O)NC1=O)C2=O (stereo not drawn) [Lenalidomide] + N=C(N)NC(=N)NCCc1ccccc1 [Phenformin] (partner 250 µM) ?
Reply: 0.627
